Molecular target: recombinant Factor XIII (rFXIIIa) (Homo sapiens)
Construct: made in house
Assay: Factor XIII cross-linking assay of test polypeptide substrates (HPLC area % vs time)
Assay type: biochemical
Conditions: share of hydrolysis (deamidation) relative to hydrolysis plus crosslinking; same reaction conditions
No end group written: not given here.
Label scheme for Hydrolysis %: lower than 20% is False, 20% and above is True.

Examples from the recorded data:
VPGVGQHHLGGAKVPGVG [VPGVGQ-- HHLGGAKVPGVG]	False
TIGEGQHHLGAKQAGDV [TIGEGQ-- HHLG-- AKQAGDV]	True
GEGQHHLGGAKQAG [-- GEGQ-- HHLGGAKQAG--]	False
GVGGQHHLGGAKQVP [GVGGQ-- HHLGGAKQVP]	False
EGQHHLGAKQAG [-- EGQ-- HHL-- GAKQAG--]	True
GQHHLGGAKQ [-- GQ-- HHLGGAKQ--, Gly-Gln-His-His-Leu-Gly-Gly-Ala-Lys-Gln]	False
TIGEGQHHLGGAKAGDV [TIGEGQ-- HHLGGAK-- AGDV]	False
GQHHLGAKQ [-- GQ-- HHLG-- AKQ--]	False

Query: Would you say GQHHLGAKQA [-- GQ-- HHL-- GAKQA--] shows Hydrolysis % at minimum 20%?
Result: False

Query: Would you say VGQHHLGGAKVPG [VGQ-- HHLGGAKVPG] shows Hydrolysis % at minimum 20%?
Result: False

Query: Would you say GQHHLGGAKA [-- GQ-- HHLGGAK-- A--] shows Hydrolysis % at minimum 20%?
Result: True

Query: Would you say LSQSKVG [LSQSKVG] shows Hydrolysis % at minimum 20%?
Result: False

* * *

Biological target: recombinant Factor XIII (rFXIIIa) (Homo sapiens, UniProt P00488)
Construct: made in house
Sequence (P00488 39-732 limits assumed): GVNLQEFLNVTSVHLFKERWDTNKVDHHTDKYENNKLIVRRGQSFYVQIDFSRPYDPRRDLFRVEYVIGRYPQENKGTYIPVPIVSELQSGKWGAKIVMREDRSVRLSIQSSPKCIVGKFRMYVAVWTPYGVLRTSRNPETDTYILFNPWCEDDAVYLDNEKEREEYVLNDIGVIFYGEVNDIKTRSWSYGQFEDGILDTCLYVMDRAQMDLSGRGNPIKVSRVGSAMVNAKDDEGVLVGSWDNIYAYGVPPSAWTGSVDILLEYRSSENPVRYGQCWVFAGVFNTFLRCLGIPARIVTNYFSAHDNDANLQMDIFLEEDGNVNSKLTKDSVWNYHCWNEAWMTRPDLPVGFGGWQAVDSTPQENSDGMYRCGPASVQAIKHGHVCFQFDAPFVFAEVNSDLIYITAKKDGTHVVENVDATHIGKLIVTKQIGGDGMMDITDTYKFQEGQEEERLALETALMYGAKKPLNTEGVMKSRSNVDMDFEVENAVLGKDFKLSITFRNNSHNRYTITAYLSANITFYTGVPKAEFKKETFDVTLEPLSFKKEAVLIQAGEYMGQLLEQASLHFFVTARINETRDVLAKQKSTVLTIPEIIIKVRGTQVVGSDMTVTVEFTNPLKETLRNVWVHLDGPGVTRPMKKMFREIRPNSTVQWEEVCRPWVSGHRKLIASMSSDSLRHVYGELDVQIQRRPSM
Experiment: Factor XIII cross-linking assay of test polypeptide substrates (HPLC area % vs time)
Format: biochemical
Conditions: initial rate; 2mM substrate; 40 ug/ml rFXIIIa (preactivated); 2.0 U/ml Thrombin; 2.5 mM CaCl2; pH 7.4
No end group written: not given here.
I'd appreciate it if you could supply Crosslinking d(2[S-])/dt (rate of monomer incorporation into dimers) values for the items below.

Examples with answers:
VPGVGLSQSKVGVPGVG [VPGVGLSQSKVGVPGVG]	15.0 uM (monomer)/min
GQHHLGGAKA [-- GQ-- HHLGGAK-- A--]	1.8 uM (monomer)/min
GQHHLGGAKQ [-- GQ-- HHLGGAKQ--, Gly-Gln-His-His-Leu-Gly-Gly-Ala-Lys-Gln]	6.2 uM (monomer)/min
GEGQHHLGGAKQAG [-- GEGQ-- HHLGGAKQAG--]	11.2 uM (monomer)/min
GQHHLGAKQ [-- GQ-- HHLG-- AKQ--]	4.9 uM (monomer)/min

// moving on: another record for Crosslinking d(2[S-])/dt (rate of monomer incorporation into dimers)
Query: Entry EGQHHLGGAKQA [-- EGQ-- HHLGGAKQA--] , system recombinant Factor XIII (rFXIIIa) (Homo sapiens, UniProt P00488): what Crosslinking d(2[S-])/dt (rate of monomer incorporation into dimers) was measured?
Result: 9.8 uM (monomer)/min

* * *

I'd appreciate it if you could supply Crosslinking d(2[S-])/dt (rate of monomer incorporation into dimers) values for the items below.
Molecular target: recombinant Factor XIII (rFXIIIa) (Homo sapiens)
Construct: made in house
Experiment: Factor XIII cross-linking assay of test polypeptide substrates (HPLC area % vs time)
Type: biochemical
Details: initial rate; 2mM substrate; 40 ug/ml rFXIIIa (preactivated); 2.0 U/ml Thrombin; 2.5 mM CaCl2; pH 7.4
No end group written: not given here.

Examples with answers:
VPGVGGQHHLGGAKQVPGVG [VPGVGGQ-- HHLGGAKQVPGVG]	11.8 uM (monomer)/min
GVGGQHHLGGAKQVP [GVGGQ-- HHLGGAKQVP]	7.6 uM (monomer)/min
TIGEGQQHHLGGAKQAGDV [TIGEGQQHHLGGAKQAGDV, reference compound]	16.4 uM (monomer)/min
TIGEGQHHLGGAKAGDV [TIGEGQ-- HHLGGAK-- AGDV]	8.8 uM (monomer)/min
GQHHLGGAKQG [GQ-- HHLGGAKQG]	4.4 uM (monomer)/min
VPGVGQHHLGGAKVPGVG [VPGVGQ-- HHLGGAKVPGVG]	15.8 uM (monomer)/min

// for each sequence in input: emit Crosslinking d(2[S-])/dt (rate of monomer incorporation into dimers)
1. TIGEGQHHLGAKQAGDV [TIGEGQ-- HHL-- GAKQAGDV]
2. VGQHHLGGAKVPG [VGQ-- HHLGGAKVPG]
3. TIGEGQHHLGGAKQAGDV [TIGEGQ-- HHLGGAKQAGDV]
4. GVGVPGQHHLGGAKQGVGVP [GVGVPGQ-- HHLGGAKQGVGVP]
5. IGEGQHHLGGAKQAGD [-- IGEGQ-- HHLGGAKQAGD--]

Result:
["3.6 uM (monomer)/min", "16.2 uM (monomer)/min", "11.4 uM (monomer)/min", "5.6 uM (monomer)/min", "14.1 uM (monomer)/min"]

* * *

Biological target: recombinant Factor XIII (rFXIIIa) (Homo sapiens, UniProt P00488)
Construct: made in house
Sequence (P00488 39-732 limits assumed): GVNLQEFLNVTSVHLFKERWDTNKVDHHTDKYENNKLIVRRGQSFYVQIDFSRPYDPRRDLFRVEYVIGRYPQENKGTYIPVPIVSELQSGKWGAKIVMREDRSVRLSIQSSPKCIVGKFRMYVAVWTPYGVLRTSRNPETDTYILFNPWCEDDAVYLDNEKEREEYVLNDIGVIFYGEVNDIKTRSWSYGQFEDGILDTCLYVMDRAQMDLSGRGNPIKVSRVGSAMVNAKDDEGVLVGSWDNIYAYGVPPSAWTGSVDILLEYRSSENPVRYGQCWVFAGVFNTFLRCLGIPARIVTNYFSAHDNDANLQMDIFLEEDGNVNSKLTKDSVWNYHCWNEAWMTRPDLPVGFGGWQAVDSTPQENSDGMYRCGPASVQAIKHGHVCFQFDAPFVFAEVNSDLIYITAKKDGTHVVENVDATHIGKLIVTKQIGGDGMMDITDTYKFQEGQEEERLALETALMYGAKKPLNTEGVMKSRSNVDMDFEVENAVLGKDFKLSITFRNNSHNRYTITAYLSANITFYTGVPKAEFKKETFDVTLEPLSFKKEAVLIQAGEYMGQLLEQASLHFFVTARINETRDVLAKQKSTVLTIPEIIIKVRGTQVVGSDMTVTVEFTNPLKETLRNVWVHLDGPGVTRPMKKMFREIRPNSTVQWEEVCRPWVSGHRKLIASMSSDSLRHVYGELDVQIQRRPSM
Test: Factor XIII cross-linking assay of test polypeptide substrates (HPLC area % vs time)
Assay type: biochemical
Conditions: initial rate; 2mM substrate; 40 ug/ml rFXIIIa (preactivated); 2.0 U/ml Thrombin; 2.5 mM CaCl2; 125 mM NaCl; 50 mM TrisHCl; pH 7.4
No end group written: not given here.
I'd appreciate it if you could supply Monomer Consumption d[S]/dt (rate of substrate utilization) values for the items below.

Examples with answers:
GQHHLGAKQ [-- GQ-- HHLG-- AKQ--]	-4.7 uM (monomer)/min
GVGVPGQHHLGGAKQGVGVP [GVGVPGQ-- HHLGGAKQGVGVP]	-7.3 uM (monomer)/min
TIGEGQHHLGGAKAGDV [TIGEGQ-- HHLGGAK-- AGDV]	-10.0 uM (monomer)/min
EGQHHLGAKQAG [-- EGQ-- HHL-- GAKQAG--]	-6.0 uM (monomer)/min
GEGQHHLGGAKQAG [-- GEGQ-- HHLGGAKQAG--]	-13.1 uM (monomer)/min

// for each substance in input: emit Monomer Consumption d[S]/dt (rate of substrate utilization)
1. IGEGQHHLGGAKQAGD [-- IGEGQ-- HHLGGAKQAGD--]
2. TIGEGQHHLGAKQAGDV [TIGEGQ-- HHL-- GAKQAGDV]

Result:
["-12.5 uM (monomer)/min", "-8.4 uM (monomer)/min"]

// for each substance in input: emit Monomer Consumption d[S]/dt (rate of substrate utilization)
1. LSQSKVG [LSQSKVG]
2. VPGVGLSQSKVGVPGVG [VPGVGLSQSKVGVPGVG]

Result:
-5.2 uM (monomer)/min
-32.0 uM (monomer)/min

Query: Please give the measured Monomer Consumption d[S]/dt (rate of substrate utilization) for this substance: VGGQHHLGGAKQVPG [VGGQ-- HHLGGAKQVPG]
Result: 11.0 uM (monomer)/min

Every entry's value here was drawn from patent US5939385A.
